# reported TGI; entries follow
Tested on: NCI-H522 lung
Assay: NCI tumour cell line growth inhibition, 48 h

Study these solved cases before continuing.
# compound, TGI
rows = [
    ("Cc1cc2cc3c(cc2c(-c2ccc([N+](=O)[O-])cc2)n1)OCO3", "40.6 µM"),
    ("O=C(CCc1cc(-c2ccccc2)nc(=S)[nH]1)N(Cc1ccccc1)Cc1ccccc1", "> 100 µM"),
    ("COC(=O)CC(c1cn(S(=O)(=O)c2ccc(C)cc2)c2ccccc12)C1C[C@@H](C(=O)OC)N(C(=O)OC(C)(C)C)C1=O (stereo partly drawn)", "> 100 µM"),
    ("NC1=NC(c2ccccc2)CC(c2cc(Cl)ccc2O)=N1 (stereo not drawn)", "29 µM"),
    ("COC(=O)c1cc2c(cc1CC1Cc3cc4c(cc3C1=O)CCC4)CCC2 (stereo not drawn)", "> 100 µM"),
]

According to the records, this compound "O=c1c2ccccc2[nH]c2c(Cl)cc(Cl)c(NC3CCCCC3)c12" displays TGI of 44 µM

According to the records, this compound "Cc1ccc(/C(Cl)=C/C=C(C#N)C#N)cc1" displays TGI of 5.17 µM

According to the records, this compound "CS(=O)(=O)c1ccc(-n2nc(C(F)(F)F)cc2OC2CCCC2)cc1" displays TGI of > 100 µM

According to the records, this compound "O=S(=O)(SC1=NCCN1)c1ccc2ccccc2c1" displays TGI of 46.3 µM

According to the records, this compound "O=C1NC(=O)C(CCC(=O)c2ccc3ccccc3c2)C(=O)N1" displays TGI of 38.5 µM

* * *

Test system: MCF7 breast
Test: NCI tumour cell line growth inhibition, 48 h
metric-name: TGI

Study these solved cases before continuing.
# compound, metric-name, assay-value
records = [
    ("COc1ccccc1N(CN1C(=O)CCC1C(=O)O)C(C)=O (stereo unspecified)", "TGI", "> 100 µM"),
    ("N#Cc1c(=O)n(-c2ccccc2)c(O)c2c(N)n[nH]c12", "TGI", "> 100 µM"),
    ("CCOCc1c(C)cc(C)c(C2C(C(=O)c3ccccc3)N3c4ccccc4C=CC3C2(C#N)C(=O)OCC)c1C (stereo unspecified)", "TGI", "> 100 µM"),
    ("CC(C)(CO)N1CCN(C(=S)Nc2ccccc2)CC1", "TGI", "> 100 µM"),
    ("C/C(Cl)=N/OC(=O)Nc1ccc(S(N)(=O)=O)c(C)c1", "TGI", "29.1 µM"),
]

Please turn your attention to the following entry.
According to the records, this compound "CCOC(=S)SSSC(=S)OCC" displays TGI of > 100 µM

* * *

Test system: KM12 colon
Test: NCI tumour cell line growth inhibition, 48 h
# reported TGI; entries follow

Study these solved cases before continuing.
# compound, TGI
measured = [
    ("CCOCc1c(C)cc(C)c(C2C(C(=O)c3ccccc3)N3c4ccccc4C=CC3C2(C#N)C(=O)OCC)c1C (stereo not given)", "54.9 µM"),
    ("C=C1[C@H](OC(C)=O)[C@H]2[C@@H](OC(C)=O)[C@@H](C)C[C@]2(C)C(=O)[C@H](C)/C=C/C(C)(C)C(=O)[C@H](OCC(C)C)[C@H]1OC(C)=O", "> 25 µM"),
    ("O=C(O)C(CS)Nc1c2ccccc2nc2ccccc12 (stereo not given)", "> 100 µM"),
]

According to the records, this compound "CC(=O)Oc1cc(Cl)c(C)c2c1[C@H]1CC[C@]3(C)[C@@H](OC(C)=O)CC[C@H]3[C@@H]1CC2" displays TGI of > 100 µM

According to the records, this compound "Nc1c(-c2ccc(Cl)cc2)[n+]([O-])c2ccccc2[n+]1[O-]" displays TGI of > 100 µM

According to the records, this compound "c1ccc(-c2cn3c(nc4ccccc43)c(-c3ccccc3)n2)cc1" displays TGI of > 100 µM
